Please go through the items and note down their Function-blocking percentage (%).
Molecular target: T1, human CTGF (antigen of the Biacore assays) (human, UniProt P29279 27-349)
T1 construct: also called antigen human CTGF; human CTGF protein
T1 sequence (looked up): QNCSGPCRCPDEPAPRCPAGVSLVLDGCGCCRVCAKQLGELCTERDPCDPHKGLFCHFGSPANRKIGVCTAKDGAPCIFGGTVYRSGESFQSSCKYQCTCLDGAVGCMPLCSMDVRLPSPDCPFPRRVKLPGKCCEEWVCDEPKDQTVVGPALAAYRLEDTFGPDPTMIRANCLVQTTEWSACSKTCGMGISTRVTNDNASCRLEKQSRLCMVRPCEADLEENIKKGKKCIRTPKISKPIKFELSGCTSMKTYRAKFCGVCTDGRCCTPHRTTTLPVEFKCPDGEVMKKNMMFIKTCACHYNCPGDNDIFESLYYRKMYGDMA
Assay: Biacore, CTGF immobilised, antibody 150 µg/ml then 50 nM TGF-β1 (competitor TGF-β1)
The response must be a number in % with no trailing unit.

// returns reported Function-blocking percentage (%) for input Hu147-22wk (antibody, human IgG1, kappa, V domains shown) VH: EVQLVESGGGLVQPGGSLRLSCAASGFTFNTYAMNWVRQAPGKGLEWVARIRTKSNNYATYYADSVKDRFTISRDDSKNSLYLQMNSLKTEDTAVYYCVETGFAYWDQGTLVTVSS VL: EIVLTQSPATLSLSPGERATLSCSASSSVSYMHWFQQKPGQSPKLLIYSTSNLASGIPARFSGSGSGTDYTLTISSLEPEDFAVYYCQQRSSYPLTFGQGTKLEIKR
52.3

Input Hu147-23wk (antibody, human IgG1, kappa, V domains shown) VH: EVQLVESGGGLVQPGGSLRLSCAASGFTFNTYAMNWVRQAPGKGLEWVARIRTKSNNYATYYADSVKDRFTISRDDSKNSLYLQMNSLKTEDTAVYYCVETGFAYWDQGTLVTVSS VL: EIVLTQSPATLSLSPGERATLSCSASSSVSYMHWFQQKPGQSPKLWIYSTSNLASGVPARFSGSGSGTDYTLTISSLEPEDFAVYYCQQRSSYPLTFGQGTKLEIKR
54.6

Check Hu147-33wk (antibody, human IgG1, kappa, V domains shown) VH: EVQLVESGGGLVQPGGSLRLSCAASGFSFNTYAMNWVRQAPGKGLEWVARIRTKSNNYATYYADSVKDRFTISRDDSESSLYLQMNSLKTEDTAVYYCVETGFAYWDQGTLVTVSS VL: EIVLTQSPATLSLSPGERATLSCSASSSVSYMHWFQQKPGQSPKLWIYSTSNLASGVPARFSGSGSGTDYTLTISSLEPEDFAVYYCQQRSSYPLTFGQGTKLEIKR too.
57.3

Source listed as patent US20220324953A1.
